Biological target: ErdR (CrbR), 6His-ErdR (Pseudomonas putida KT2440)
Sequence: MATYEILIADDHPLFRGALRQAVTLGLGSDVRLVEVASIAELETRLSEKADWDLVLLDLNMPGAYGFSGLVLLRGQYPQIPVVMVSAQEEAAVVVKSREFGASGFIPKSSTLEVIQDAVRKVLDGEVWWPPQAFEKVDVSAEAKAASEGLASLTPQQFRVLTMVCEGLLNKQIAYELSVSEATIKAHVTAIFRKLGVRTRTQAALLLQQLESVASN
Assay: EMSA
Conditions: 10 mM Tris-HCl pH 8, 2 mM MgCl2, 1 mM DTT, 10% glycerol, 12 ng/uL sheared salmon sperm DNA, 2 mM acetyl phosphate when needed; 2.5 ng DNA in 10 uL, 20 min at …

seq	binding
CGCGAACGGGTCATCACTTTGTTACGCAATCGGTAAAACACCGTTGCATCTAAGACTAAGGTCGTCTGGTTGGCGTCCATCGGCAGCATAAAGTAAGGGTGTGGGTTCCATCCCGTATCTGTGCTGCTAGGACAAAAACA (double strand) [yjcH (actP-I) promoter]	binds
TAGGCGTCCTTTTTGCTCATGAAACTGACCGTATCGCTATGCCGAACTATATATATCTATATATAGGTACCGGCCATGTTGTTCTCTGCCTCCATGGTCGGCTTGCGGCGGGGTGGTGCCCATTGGACGTAAGTCTATGA (double strand) [pp_0354 promoter]	binds
AATCGCCTTGCCGTTGCTGGCGAGGTGAATTTTATGGCGCTGGCCAAGGCCGAAACAGTGGGTGTTTTGATAAAGTGTTTTGACAGAATCTGTAACAATCCTGTGGCAAACCCCTCGTTTTTTCGTCGGCAAGGCTGTAA (double strand) [acsA-I (1) promoter]	no binding
AGCAACGGCAAGGCGATTAACAACTGGTAACAGCCCCCACGAAGGCAAGCGTTAATCTCCATCTAATCCCGATAGTTAAAACTAGCAATACTCGCGGCGCCATAAGCGCCGCGTGCCCCCTCACGACCTTAGACAGGTAA (double strand) [acsA-I (2) promoter]	no binding
